Record form. Attribute: fluorescence ratio (interference). Fill in for each entry.
assay-remarks: compounds altering Cy5-DNA-NS3h complex signal – biochemical, LOPAC1280, artefact control for HCV NS3 helicase inhibitor project (AID 687037)
conditions: Cy5-DNA-NS3h complex fluorescence interference counterscreen
# print the numeric value only

I would be grateful if you could share the reported fluorescence ratio (interference) for CCC1(O)CC2CN(CCc3c([nH]c4ccccc34)[C@@](C(=O)OC)(c3cc4c(cc3OC)N(C=O)C3[C@]45CCN4CC=C[C@@](CC)([C@@H](OC(C)=O)[C@]3(O)C(=O)OC)[C@H]45)C2)C1 (some centres undefined) .
1

I would be grateful if you could share the reported fluorescence ratio (interference) for `CN(CC[C@@H](Oc1ccc(C(F)(F)F)cc1)c1ccccc1)CC(=O)O` .
0.9

I would be grateful if you could share the reported fluorescence ratio (interference) for O[Si](CCCN1CCCCC1)(c1ccc(F)cc1)C1CCCCC1 (centres undefined) .
1

I would be grateful if you could share the reported fluorescence ratio (interference) for `N#C/C(=C\c1ccc(O)c(O)c1)C(=O)NCCCNC(=O)/C(C#N)=C/c1ccc(O)c(O)c1` .
1

I would be grateful if you could share the reported fluorescence ratio (interference) for `O=c1cc(O)cc(/C=C/c2ccc(O)c(O)c2)o1` .
1

I would be grateful if you could share the reported fluorescence ratio (interference) for O=C(O)C1CN(CCCP(=O)(O)O)CCN1 (centres undefined) .
1

I would be grateful if you could share the reported fluorescence ratio (interference) for `c1ccc2c(c1)CCC[C@H]2Nc1nc2ccccc2[nH]1` .
1

I would be grateful if you could share the reported fluorescence ratio (interference) for `CCOC([O-])=Nc1c[n+](N2CCOCC2)no1` .
1

I would be grateful if you could share the reported fluorescence ratio (interference) for `N=C(N)c1ccccc1` .
1

I would be grateful if you could share the reported fluorescence ratio (interference) for O=C(O)CC1CCCc2ccccc2C1O (centres undefined) .
1

I would be grateful if you could share the reported fluorescence ratio (interference) for CSc1nc(N)c2ncn([C@@H]3O[C@H](COP(=O)(O)OP(=O)(O)O)[C@H](O)C3O)c2n1 (some centres undefined) .
0.9

I would be grateful if you could share the reported fluorescence ratio (interference) for `O=C1c2ccccc2C(=O)c2c(NCCc3ccc(O)cc3)ccc(NCCc3ccc(O)cc3)c21` .
1.1

I would be grateful if you could share the reported fluorescence ratio (interference) for `N=S(=O)(O)Cc1noc2ccccc12` .
1

I would be grateful if you could share the reported fluorescence ratio (interference) for `NO` .
1

I would be grateful if you could share the reported fluorescence ratio (interference) for O=C1C2C=CC=CC2=NC(=S)N1CCN1CCC(=C(c2ccc(F)cc2)c2ccc(F)cc2)CC1 (centres undefined) .
1

I would be grateful if you could share the reported fluorescence ratio (interference) for `COc1ccccc1N1CCN(CCN(C(=O)c2ccc(F)cc2)c2ccccn2)CC1` .
0.9

I would be grateful if you could share the reported fluorescence ratio (interference) for `S=C(Nc1ccccc1)Nc1nccs1` .
1

I would be grateful if you could share the reported fluorescence ratio (interference) for OC[C@H]1O[C@@H](n2cnc3c(NC4CCCC4)ncnc32)C(O)[C@H]1O (some centres undefined) .
1

I would be grateful if you could share the reported fluorescence ratio (interference) for O=C(O)CCC(=O)N1CCCC1C(=O)O (centres undefined) .
1

I would be grateful if you could share the reported fluorescence ratio (interference) for `[Li+]` .
1

I would be grateful if you could share the reported fluorescence ratio (interference) for OC[C@H]1OC(n2cnc3c(N[C@H]4CCC[C@@H]4O)ncnc32)[C@H](O)[C@@H]1O (some centres undefined) .
1

I would be grateful if you could share the reported fluorescence ratio (interference) for `CC(C)C[C@H](NC(=O)[C@H](O)[C@H](N)Cc1ccccc1)C(=O)O` .
1

I would be grateful if you could share the reported fluorescence ratio (interference) for `Nn1nnc2ccccc21` .
1

I would be grateful if you could share the reported fluorescence ratio (interference) for `CCN1C(=O)C=CC1=O` .
1
